Recorded bioavailability by entry
experiment: Oral bioavailability in rat at 1 mg/kg administered as cassette dose; assay type: ADME, organism-based; settings: in vivo
State just the number; it will be interpreted in %.

| STRUCTURE NOTATION | VALUE OBSERVED |
| --- | --- |
| O=C(NCc1ccccc1)C1=C(O)[C@@H]2Oc3c(O)ccc4c3[C@@]23CCN(CC2CC2)[C@H](C4)[C@]3(O)C1 | 46 |
| CC(C)NC(=O)C1=C(O)[C@@H]2Oc3c(O)ccc4c3[C@@]23CCN(CC2CC2)[C@H](C4)[C@]3(O)C1 | 50 |
| O=C(C1=C(O)[C@@H]2Oc3c(O)ccc4c3[C@@]23CCN(CC2CC2)[C@H](C4)[C@]3(O)C1)N1CCCC1 | 18 |
| COC(=O)C1(NC(=O)C2=C(O)[C@@H]3Oc4c(O)ccc5c4[C@@]34CCN(CC3CC3)[C@H](C5)[C@]4(O)C2)CC1 | 11 |
| CC(C)(NC(=O)C1=C(O)[C@@H]2Oc3c(O)ccc4c3[C@@]23CCN(CC2CC2)[C@H](C4)[C@]3(O)C1)c1nc(-c2ccccc2)no1 | 29 |

Query block: State the recorded bioavailability for this entry: Cc1nc(N)nc2c1C[C@@]1(O)[C@H]3Cc4ccc(O)c5c4[C@@]1(CCN3CC1CC1)[C@H]2O5
Result block: 42.5

Query block: State the recorded bioavailability for this entry: CC(C)(NC(=O)C1=C(O)[C@@H]2Oc3c(O)ccc4c3[C@@]23CCN(CC2CC2)[C@H](C4)[C@]3(O)C1)C(=O)O
Result block: 0.52

Query block: State the recorded bioavailability for this entry: O=C(O)c1ccc2c3c([nH]c2c1Cl)[C@@H]1Oc2c(O)ccc4c2[C@@]12CCN(CC1CC1)[C@H](C4)[C@]2(O)C3
Result block: 0.2

Query block: State the recorded bioavailability for this entry: CC(C)(NC(=O)C1=C(O)[C@@H]2Oc3c(O)ccc4c3[C@@]23CCN(CC2CC2)[C@H](C4)[C@]3(O)C1)C(=O)NS(C)(=O)=O
Result block: 0.77

Recorded values, source ChEMBL document CHEMBL4308867.
